FYI, the data here is from ChEMBL document CHEMBL5236659.

- PROTOCOL_NOTES: Selectivity ratio of IC50 for antiproliferative activity against human HeLa cells to IC50 for antiproliferative activity against paclitaxel-resistant human HeLa cells
- Assay type: functional
I would appreciate it if you labelled entries Y when Ratio IC50 is 1 or higher, otherwise N.

Look over these answered cases.
CS(=O)(=O)N1CCN(Cc2ccc(-c3nc(-c4ccc(NC(=O)Nc5ncccn5)cc4)nc(N4CCOCC4)n3)s2)CC1; Y
CS(=O)(=O)N1CCN(Cc2ccc(-c3nc(-c4ccc(NC(=O)Nc5cnccn5)cc4)nc(N4CCOCC4)n3)s2)CC1; Y
CS(=O)(=O)N1CCN(Cc2ccc(-c3nc(-c4ccc(NC(=O)Nc5nc[nH]n5)cc4)nc(N4CCOCC4)n3)s2)CC1; Y
Cn1nccc1NC(=O)Nc1ccc(-c2nc(-c3ccc(CN4CCN(S(C)(=O)=O)CC4)s3)nc(N3CCOCC3)n2)cc1; Y
CS(=O)(=O)N1CCN(Cc2ccc(-c3nc(-c4ccc(NC(=O)Nc5cncnc5)cc4)nc(N4CCOCC4)n3)s2)CC1; N

Query string: Tell me whether Ratio IC50 is at least 1 here: `CS(=O)(=O)N1CCN(Cc2ccc(-c3nc(-c4ccc(NC(=O)NN5CCOCC5)cc4)nc(N4CCOCC4)n3)s2)CC1`
Result string: Y

Query string: Is reported Ratio IC50 greater than or equal to 1 here: `CS(=O)(=O)N1CCN(Cc2ccc(-c3nc(-c4ccc(NC(=O)Nc5ccn[nH]5)cc4)nc(N4CCOCC4)n3)s2)CC1`
Result string: Y

Query string: Determine whether this compound has Ratio IC50 no lower than 1: `CS(=O)(=O)N1CCN(Cc2ccc(-c3nc(-c4ccc(NC(=O)Nc5ccc6[nH]ncc6c5)cc4)nc(N4CCOCC4)n3)s2)CC1`
Result string: N

###

- System: A549
- PROTOCOL_NOTES: Antiproliferative activity against human A549 cells assessed as inhibition of cell growth incubated for 72 hrs by MTT assay
- Format: functional, cell-based
- COND: A549, 72 h
Response field label: string, one of true (IC50 strictly below 10 µM) or false.

Below are worked cases with known answers.
CS(=O)(=O)N1CCN(Cc2ccc(-c3nc(-c4ccc(NC(=O)Nn5cnnc5)cc4)nc(N4CCOCC4)n3)s2)CC1; false
CS(=O)(=O)N1CCN(Cc2ccc(-c3nc(-c4ccc(NC(=O)Nc5ncc[nH]5)cc4)nc(N4CCOCC4)n3)s2)CC1; false
Cn1ccc(NC(=O)Nc2ccc(-c3nc(-c4ccc(CN5CCN(S(C)(=O)=O)CC5)s4)nc(N4CCOCC4)n3)cc2)n1; true
CS(=O)(=O)N1CCN(Cc2ccc(-c3nc(-c4ccc(NC(=O)NN5CCOCC5)cc4)nc(N4CCOCC4)n3)s2)CC1; false
CS(=O)(=O)N1CCN(Cc2cc3nc(-c4cccc5[nH]ncc45)nc(N4CCOCC4)c3s2)CC1; true

Continue with the compound presented below.
Query string: Identify whether the compound `CS(=O)(=O)N1CCN(Cc2ccc(-c3nc(-c4ccc(NC(=O)Nc5nc[nH]n5)cc4)nc(N4CCOCC4)n3)s2)CC1` records IC50 below 10 µM.
Result string: false

###

- TESTED_SYSTEM: Epidermal growth factor receptor (Homo sapiens)
- PROTOCOL_NOTES: Inhibition of EGFR (unknown origin) at 1 uM by kinase-glo luminescent assay relative to control
The source made the active and inactive calls. The rule behind the calls is not given here.
PARAMETER: inhibition

CS(=O)(=O)N1CCN(Cc2ccc(-c3nc(-c4ccc(NC(=O)Nc5ccncc5)cc4)nc(N4CCOCC4)n3)s2)CC1; 6.24%
CS(=O)(=O)N1CCN(Cc2ccc(-c3nc(-c4ccc(NC(=O)Nc5ccn[nH]5)cc4)nc(N4CCOCC4)n3)s2)CC1; 10.5%
CS(=O)(=O)N1CCN(Cc2cc3nc(-c4cccc5[nH]ncc45)nc(N4CCOCC4)c3s2)CC1 [PICTILISIB]; inactive
Cn1ccc(NC(=O)Nc2ccc(-c3nc(-c4ccc(CN5CCN(S(C)(=O)=O)CC5)s4)nc(N4CCOCC4)n3)cc2)n1; inactive
